target: hOX2R (Homo sapiens, UniProt O43614); test: Intracellular calcium measurements using division-arrested cells, OX2; type: cell-based; settings: agonist orexin B at 2×EC50, * = single experiment, otherwise average of at least two, read-out: pIC50 OX2 (converted)
Sequence (O43614 whole entry): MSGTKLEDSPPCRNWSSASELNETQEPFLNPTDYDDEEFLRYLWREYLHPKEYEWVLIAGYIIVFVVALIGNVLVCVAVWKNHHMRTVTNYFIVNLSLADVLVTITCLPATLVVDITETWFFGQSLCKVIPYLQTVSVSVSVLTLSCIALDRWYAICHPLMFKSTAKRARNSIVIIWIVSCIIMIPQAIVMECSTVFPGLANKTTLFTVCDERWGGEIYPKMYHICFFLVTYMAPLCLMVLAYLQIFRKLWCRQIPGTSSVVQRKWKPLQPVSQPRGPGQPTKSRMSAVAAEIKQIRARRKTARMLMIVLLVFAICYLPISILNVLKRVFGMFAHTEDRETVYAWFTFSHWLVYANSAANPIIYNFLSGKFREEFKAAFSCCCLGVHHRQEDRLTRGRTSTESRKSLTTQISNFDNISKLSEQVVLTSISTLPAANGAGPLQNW
readout.kind: IC50

Worked examples, 5 compounds total:
CC[C@@H](CNc1ccc(C(F)(F)F)cn1)N(C)C(=O)c1cc(Cl)ccc1-n1nccn1 :: 1000 nM
CC(C)[C@@H](CNc1nccc(-c2ccccc2)n1)N(C)C(=O)c1ccccc1-c1ccccc1 :: 2000 nM
CC[C@@H](CNc1ccc(C(F)(F)F)nn1)N(C)C(=O)c1cc(Cl)ccc1-n1nccn1 :: > 10000 nM
Cc1nc(-c2ccccc2)c(C(=O)N(C)[C@H](CNc2ccc(Cl)cn2)CC(C)C)s1 :: > 10000 nM
CC[C@@H](CNc1ncc(C(F)(F)F)cn1)N(C)C(=O)c1cc(Cl)ccc1-n1nccn1 :: 1000 nM

Measured IC50 for this entry `Cc1ccc(-n2nccn2)c(C(=O)N(C)[C@H](CNc2ccc(Cl)cn2)C(C)C)c1` on hOX2R (Homo sapiens, UniProt O43614): > 5010 nM

Measured IC50 for this entry `CC[C@@H](CNc1ccc(C(F)(F)F)nc1)N(C)C(=O)c1cc(Cl)ccc1-n1nccn1` on hOX2R (Homo sapiens, UniProt O43614): 1260 nM

Measured IC50 for this entry `CC(C)[C@@H](CNc1ccc(Cl)cn1)N(C(=O)c1ccccc1-c1ccccc1)C1CC1` on hOX2R (Homo sapiens, UniProt O43614): > 10000 nM

Measured IC50 for this entry `CN(C(=O)c1ccccc1-c1ccccc1)[C@H](CNc1ccc(Cl)cn1)C1CC1` on hOX2R (Homo sapiens, UniProt O43614): 2510 nM

Measured IC50 for this entry `CC(C)[C@@H](CNC(=O)c1ccc(F)cc1)N(C)C(=O)c1ccccc1-c1ccccc1` on hOX2R (Homo sapiens, UniProt O43614): > 3160 nM

Measured IC50 for this entry `Cc1cc(C)nc(OC[C@H](C(C)C)N(C)C(=O)c2ccccc2-c2ccccc2)n1` on hOX2R (Homo sapiens, UniProt O43614): > 5010 nM

Measured IC50 for this entry `CC(C)C[C@@H](CNc1ccc(Cl)cn1)N(C)C(=O)c1ccccc1-c1ccccc1` on hOX2R (Homo sapiens, UniProt O43614): > 10000 nM

Measured IC50 for this entry `Cc1nc(-c2ccccc2)c(C(=O)N(C)[C@H](CNc2ccc(Cl)cn2)C(C)C)s1` on hOX2R (Homo sapiens, UniProt O43614): > 7940 nM

----------
molecular target: hOX1R (Homo sapiens); assay: Intracellular calcium measurements using stable-replicating cells, Method A, OX1; type: cell-based; settings: orexin-A at 4×EC50, * = single experiment, read-out: pIC50 OX1 (converted)
Sequence (O43613 whole entry): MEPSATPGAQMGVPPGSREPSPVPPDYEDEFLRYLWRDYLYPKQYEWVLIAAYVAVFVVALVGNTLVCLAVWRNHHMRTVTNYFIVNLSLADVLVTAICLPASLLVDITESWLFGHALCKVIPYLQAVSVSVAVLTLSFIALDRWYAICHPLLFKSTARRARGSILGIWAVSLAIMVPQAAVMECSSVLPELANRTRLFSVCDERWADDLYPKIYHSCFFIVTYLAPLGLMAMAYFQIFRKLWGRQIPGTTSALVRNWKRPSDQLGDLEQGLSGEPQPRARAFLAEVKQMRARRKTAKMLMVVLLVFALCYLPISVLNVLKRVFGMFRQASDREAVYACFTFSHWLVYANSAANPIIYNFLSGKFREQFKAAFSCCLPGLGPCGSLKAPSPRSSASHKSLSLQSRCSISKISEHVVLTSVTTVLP
readout.kind: IC50 (nM)
Output spec: scalar in nM, unitless text.

CC[C@@H](CNc1ccc2ccccc2n1)N(C)C(=O)c1nc(C)ccc1-n1nccn1 [Example 75] :: 6.31
CC[C@@H](CNc1cnc(C(F)(F)F)cn1)N(C)C(=O)c1nc(C)ccc1-n1nccn1 [Example 47] :: 3.98
CC[C@@H](CNc1ccc(Cl)cn1)N(C)C(=O)c1cc(C)c(C)cc1-n1nccn1 [Example 86] :: 7.94

Continue with the next molecule.
# molecule Cc1nc(-c2ccccc2)c(C(=O)N[C@H](CNc2ccc(Cl)cn2)C(C)C)s1 [Example 6] ; its IC50 = 3160
